# method-description: Cytotoxicity against human K562 cells assessed as cell viability at 20 uM
# Format: cell-based
# test-context: read-out: Activity

{"compound": "C=C1CC[C@H]2C(C)(C)CCC[C@]2(C)[C@H]1C/C=C1/C(=O)OC[C@@H]1O [ISOCORONARIN D]", "viability at 20 µM / %": 80.7}

---

# method-description: Cytotoxicity against human K562 cells assessed as cell viability at 5 uM
# Assay type: cell-based
# test-context: read-out: Activity
Measured viability at 5 µM by item

{"item-smiles": "C=C1CC[C@H]2C(C)(C)CCC[C@]2(C)[C@H]1/C=C/C1=CCOC1=O", "viability at 5 µM": "88.9%"}
{"item-smiles": "C=C1CC[C@H]2C(C)(C)CCC[C@]2(C)[C@H]1/C=C/c1ccoc1", "viability at 5 µM": "87.2%"}
{"item-smiles": "C=C1CC[C@H]2C(C)(C)[C@@H](O)CC[C@]2(C)[C@H]1/C=C/C1=CCOC1=O", "viability at 5 µM": "87.7%"}
{"item-smiles": "C=C1CC[C@H]2C(C)(C)C(=O)CC[C@]2(C)[C@H]1/C=C/C1=CCOC1=O", "viability at 5 µM": "85.8%"}
{"item-smiles": "C=C1CC[C@H]2C(C)(C)CCC[C@]2(C)[C@H]1/C=C/C1=C(O)COC1=O", "viability at 5 µM": "87.5%"}
